Target: GST-AKT1 CA (85 kDa) (UniProt P31749 1-480)
Sequence (P31749 whole entry): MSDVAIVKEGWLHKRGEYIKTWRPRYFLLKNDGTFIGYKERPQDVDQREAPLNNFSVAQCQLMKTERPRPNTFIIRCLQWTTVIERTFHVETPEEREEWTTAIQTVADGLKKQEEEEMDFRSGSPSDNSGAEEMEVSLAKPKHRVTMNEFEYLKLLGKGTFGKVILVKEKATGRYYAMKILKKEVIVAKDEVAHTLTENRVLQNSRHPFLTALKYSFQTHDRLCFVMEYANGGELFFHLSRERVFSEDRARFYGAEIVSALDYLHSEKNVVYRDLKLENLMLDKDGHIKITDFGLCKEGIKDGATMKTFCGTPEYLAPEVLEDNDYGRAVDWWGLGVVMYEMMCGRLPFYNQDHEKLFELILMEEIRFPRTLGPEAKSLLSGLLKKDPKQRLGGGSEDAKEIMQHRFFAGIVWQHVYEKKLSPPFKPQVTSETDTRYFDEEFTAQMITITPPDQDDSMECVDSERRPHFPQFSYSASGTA
Assay: BLI
Measurement kind: Kd (nM)
# value in nM; strip the unit string

Please report the recorded Kd for GST-PALLD third IgC domain (40 kDa) (domain or fragment, labelled by biotin) PFFEMKLKHYKIFEGMPVTFTCRVAGNPKPKIYWFKDGKQISPKSDHYTIQRDLDGTCSLHTTASTLDDDGNYTIMAANPQGRIS .
0.0772
